EXPERIMENTAL_TARGET: recombinant human GCase (rhGCase; Cerezyme®) (Homo sapiens (Human), UniProt P04062, R534H)
Sequence (P04062 40-536 R534H limits assumed): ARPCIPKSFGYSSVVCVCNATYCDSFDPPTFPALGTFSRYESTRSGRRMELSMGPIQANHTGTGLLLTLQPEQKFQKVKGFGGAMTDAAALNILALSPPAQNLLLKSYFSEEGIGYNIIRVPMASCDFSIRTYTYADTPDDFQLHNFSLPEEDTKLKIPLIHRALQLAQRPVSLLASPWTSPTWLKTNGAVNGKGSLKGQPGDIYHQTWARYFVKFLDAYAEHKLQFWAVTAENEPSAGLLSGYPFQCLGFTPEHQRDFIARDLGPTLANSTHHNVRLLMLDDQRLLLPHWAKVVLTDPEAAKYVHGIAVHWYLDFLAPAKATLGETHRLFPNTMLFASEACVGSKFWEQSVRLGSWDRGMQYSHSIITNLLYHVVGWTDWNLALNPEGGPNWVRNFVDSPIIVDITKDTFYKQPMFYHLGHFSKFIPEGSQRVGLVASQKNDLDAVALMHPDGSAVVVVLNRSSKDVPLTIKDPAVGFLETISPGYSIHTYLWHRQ
ASSAY_NAME: In vitro enzyme inhibition assay (4-MU-β-D-Glc substrate), inhibition constants
Type: biochemical
CONDITION_CONTEXT: pH 5.2; read-out: IC50 (μM) pH 5.2
Give IC50 for every item shown.
Numbers only, in µM.

Batch request: IC50 for each of the following molecules.
1. CC(C)(O)[C@H]1CNC[C@@H](O)[C@@H]1O
2. C[C@@H](F)[C@@H]1CNC[C@@H](O)[C@@H]1O.Cl [Cmpd 14, Hydrochloride]
3. CC(O)[C@H]1CNC[C@@H](O)[C@@H]1O (single isomer, unassigned) [Cmpd 9]
4. CC[C@@H](F)[C@H]1CNC[C@@H](O)[C@@H]1O.Cl [hydrochloride]
5. O[C@@H]1[C@@H](Cc2ccccc2)CNC[C@H]1O [(3R,4R,5S)-5-benzyl-piperidine-3,4-diol]
6. C[C@H](O)[C@H]1CNC[C@@H](O)[C@@H]1O (single isomer, unassigned) [Cmpd 10]
7. O[C@@H]1[C@@H]([C@H](O)c2ccccc2)CNC[C@H]1O

Result:
1: 0.234; 2: 0.038; 3: 0.107; 4: 0.291; 5: 0.659; 6: 0.343; 7: 3.29
